System: MOLT-4 leukemia
Experimental Protocol: NCI-60 one-dose screen, 48 h
Stated Conditions: 10 µM unless noted
The panel holds about 83,000 compounds, 20% with a hit somewhere; the sample as a whole holds those more often. Active and inactive are the calls of the source. How the source made its calls: active means growth percent below 10; inactive means the rest.
Your reply should match one of these outcome classes. active, inactive

QUERY: Test call for this compound, please: O=C1CCc2c(sc3[nH]c(=S)n(Cc4ccc(Cl)cc4)c(=O)c23)C1
RESULT: inactive

QUERY: Test call for this compound, please: O=C(CCCCCCCCC(=O)N/N=C\c1ccccc1O)N/N=C\c1ccccc1O
RESULT: inactive

QUERY: Test call for this compound, please: Cc1ccc2[nH]c(=S)[nH]c(=O)c2c1
RESULT: inactive

QUERY: Test call for this compound, please: O=C1/C(=C/c2cn(-c3ccccc3)nc2-c2ccccc2)SC(=S)N1c1ccccc1
RESULT: inactive

QUERY: Test call for this compound, please: Nc1nc(N)c2c(n1)NC(c1ccc(Cl)cc1)CC(c1cccc(Nc3ccncc3)c1)=N2 (stereo not given)
RESULT: inactive

QUERY: Test call for this compound, please: O=c1c(/C=C/c2ccco2)nnc2sc(Nc3ccc(Cl)cc3)nn12
RESULT: inactive

QUERY: Test call for this compound, please: Cn1cc(-c2nonc2-c2cn(C)c3ccc(Br)cc23)c2ccccc21
RESULT: inactive

QUERY: Test call for this compound, please: C/C(=C(\c1ccc(OCCN2CCOCC2)cc1)c1ccc(OC(=O)C2CCCCC2)cc1)c1ccc(Cl)cc1
RESULT: inactive

QUERY: Test call for this compound, please: CCCN1C(=O)/C(=c2\sc3n(c2=O)NC2C(N=3)N(CC)C(=O)N2CC)c2ccccc21 (stereo not given)
RESULT: inactive

QUERY: Test call for this compound, please: CC12OC(CC(O)C1O)n1c3ccccc3c3c4c(c5c6ccccc6n2c5c31)C(=O)N(CCN1CCOCC1)C4=O (stereo not given)
RESULT: active

* * *

Tested on: CCRF-CEM leukemia
Experimental Protocol: NCI-60 one-dose screen, 48 h
Stated Conditions: 10 µM unless noted
About 83,000 compounds went through this panel and 20% of them were active in at least one assay; those are over-represented in the sample as a whole. The source made the active and inactive calls. The calls were made as follows: active = growth percent below 10; inactive = the rest.
Your reply should match one of these outcome classes. active, inactive

QUERY: Test call for this molecule, please: COc1cc(N=Nc2ccc(O)c3ncccc23)c2ncccc2c1
RESULT: active

QUERY: Test call for this molecule, please: CN(C)C1CCN(C(=O)c2ccc(NC(=O)Nc3ccc(-c4nc(N5CCOCC5)c5cccn5n4)cc3)cc2)CC1
RESULT: inactive

QUERY: Test call for this molecule, please: C[N+]1=C(/C=C\C=C\c2ccccc2)C(C)(C)c2ccccc21
RESULT: active

QUERY: Test call for this molecule, please: Clc1ccc(CNc2ccc3nc(CCC4CCCCC4)[nH]c3c2)cc1
RESULT: inactive

QUERY: Test call for this molecule, please: CCN1C(=O)N(c2ccccc2)C2NC(=S)N(/N=C/C=C/c3ccccc3)C21 (centres undefined)
RESULT: active

QUERY: Test call for this molecule, please: Cc1ccc(/C=C(\C#N)c2cc3ccccc3[nH]2)cc1
RESULT: inactive

QUERY: Test call for this molecule, please: CCN(c1cc(-c2ccc(CN3CCC(/C=C/S(=O)(=O)c4ccccc4)CC3)cc2)cc(C(=O)NCc2c(C)cc(C)[nH]c2=O)c1C)C1CCOCC1
RESULT: inactive

QUERY: Test call for this molecule, please: Cc1ccc(-c2nc3nc(-c4ccccc4)nc(N4CCN(S(=O)(=O)c5ccccc5)CC4)c3o2)cc1
RESULT: inactive

QUERY: Test call for this molecule, please: CCCCCCCCCCCCCCCCCCn1cc(COc2ccc(C=O)cc2)nn1
RESULT: inactive

QUERY: Test call for this molecule, please: COc1cc(-c2[nH]ncc2Nc2ccc(Cl)cc2)cc(OC)c1OC
RESULT: inactive

QUERY: Test call for this molecule, please: N#C/C(=C\c1ccc(Br)cc1)n1nnc2c(F)cccc21
RESULT: active

QUERY: Test call for this molecule, please: CCOC(=O)C1=C(C)NC(=O)NC1c1c(Cl)n(-c2ccccc2)c2ccccc12 (centres undefined)
RESULT: active

QUERY: Test call for this molecule, please: C=C(CNCCc1ccc(O)cc1)[C@@H]1CC[C@]2(CO)CC[C@]3(C)[C@H](CC[C@@H]4[C@@]5(C)CCC(NCCc6ccc(O)cc6)C(C)(C)[C@@H]5CC[C@]43C)[C@@H]12 (some centres undefined)
RESULT: active

QUERY: Test call for this molecule, please: COc1ccccc1/C=C1\COc2ccc(O)c(O)c2C1=O
RESULT: active

QUERY: Test call for this molecule, please: CC1(Cc2ccccc2)CC2=C(C(=O)O1)C(c1ccccc1)NC(=O)N2 (centres undefined)
RESULT: inactive

QUERY: Test call for this molecule, please: O=C1C=C(Nc2ccccc2)c2ncccc2C1=O
RESULT: active

QUERY: Test call for this molecule, please: Nc1ncnc2c1C(c1ccc([N+](=O)[O-])cc1)c1sc3c(F)cccc3c1O2 (centres undefined)
RESULT: inactive

QUERY: Test call for this molecule, please: O=C(CN1C(=O)S/C(=C\C(Cl)=C\c2ccccc2)C1=O)NC1C=CS(=O)(=O)C1 (centres undefined)
RESULT: active

QUERY: Test call for this molecule, please: O=C1C(=C(O)c2ccccc2)C(=O)c2ccccc21
RESULT: inactive

QUERY: Test call for this molecule, please: Cc1[nH]c(C(=O)Nc2nc3ccc(NC(=O)CCN)cc3s2)c(Cl)c1Cl
RESULT: inactive

QUERY: Test call for this molecule, please: CC/C(=C(/c1ccc(Cl)cc1)c1ccc(OCCN2CCOCC2)cc1)c1ccccc1
RESULT: inactive

QUERY: Test call for this molecule, please: C/C=C(/C)C(=O)O[C@@H]1CC(C)(C)CC2C34OC(=O)[C@@]21CC[C@@]3(C)[C@]1(C)CCC2C(C)(C)C(=O)CC[C@]2(C)C1C[C@@H]4Cl (some centres undefined)
RESULT: inactive

QUERY: Test call for this molecule, please: Cc1nc(-n2[nH]c(=O)ccc2=O)sc1N=Nc1ccccc1
RESULT: inactive

QUERY: Test call for this molecule, please: Cc1ccc(/C=C/c2c(C(=O)/C=C/c3ccccc3)c(C)nc3ccccc23)cc1
RESULT: active

QUERY: Test call for this molecule, please: CCn1cc(C(=O)NN=C2CCCC2)c(=O)c2ccc(C)nc21
RESULT: inactive

QUERY: Test call for this molecule, please: CC/C(=C(/c1ccc(O)cc1)c1ccc(OCCN2CCCCCC2)cc1)c1ccc(Cl)cc1
RESULT: inactive

QUERY: Test call for this molecule, please: COc1cc(Nc2nc3ccccc3cc2C(=O)Nc2ccc(F)c(F)c2)cc(OC)c1OC
RESULT: inactive

QUERY: Test call for this molecule, please: BrC1=C(Br)C(Br)(Br)C(Br)=C1Br
RESULT: inactive

QUERY: Test call for this molecule, please: COc1ccc(C(=O)N/N=C/c2ccc(O)cc2O)cc1Nc1ccnc(C(F)(F)F)c1
RESULT: active

QUERY: Test call for this molecule, please: COc1ccccc1/C=C1\COc2ccc(O)cc2C1=O
RESULT: active

QUERY: Test call for this molecule, please: COc1cc(-c2nn(-c3cccc(NC(=O)CCN4CCN(C)CC4)c3)cc2-c2ccncc2)ccc1Cl
RESULT: active

QUERY: Test call for this molecule, please: CONC1=Nc2cc(NC(N)=NCc3ccccc3)c(N(C)C3CCCCC3)cc2OC1
RESULT: inactive

QUERY: Test call for this molecule, please: Cc1ccc(-c2nc([P+](c3ccccc3)(c3ccccc3)c3ccccc3)c(Nc3ccccc3)o2)cc1
RESULT: active

QUERY: Test call for this molecule, please: COc1ccc(/C=N/C2=C(C#N)C(c3ccccc3)c3c(ccc4ccccc34)O2)cc1 (centres undefined)
RESULT: inactive

QUERY: Test call for this molecule, please: Cc1n(Cc2ccc3ccccc3c2)c(Cl)c(Cl)[n+]1Cc1ccc2ccccc2c1
RESULT: inactive

QUERY: Test call for this molecule, please: CCCCCC#CC1OC23CCCCC2C(C#N)(C(=N)O3)C1(C#N)C#N (centres undefined)
RESULT: inactive

QUERY: Test call for this molecule, please: COc1cc(CNC(=O)CCCC/C=C/C(C)C)ccc1OCc1cn(-c2ccc([N+](=O)[O-])cc2)nn1
RESULT: inactive

QUERY: Test call for this molecule, please: COc1ccc(-c2cc(-c3cccnc3)nc3sc4c(Cl)nnnc4c23)cc1OC
RESULT: inactive

QUERY: Test call for this molecule, please: CCCCCCCCCCCCC[C@H](O)C[C@H](O)[C@H](C)N
RESULT: inactive
